# melting point values compiled below

Molecule: COc1ccc(C2=NOC(C)(c3noc(-c4ccc(Cl)c(Cl)c4)n3)C2)cc1OC1CCCC1 (centres unmarked)
melting point: 113.5 to 114.9 °C
//
Molecule: COc1ccc(C2=NOC(C)(c3noc(-c4ccccc4Cl)n3)C2)cc1OC1CCCC1 (centres unmarked)
melting point: 122 °C
//
Molecule: CCOc1ccccc1-c1nc(C2(C)CC(c3ccc(OC)c(OC4CCCC4)c3)=NO2)no1 (centres unmarked)
melting point: 138.5 to 139 °C
//
Molecule: COc1cccc(-c2nc(C3(C)CC(c4ccc(OC)c(OC5CCCC5)c4)=NO3)no2)c1 (centres unmarked)
melting point: 121 to 122 °C
//
Molecule: COc1ccc(C2=NOC(C)(c3noc(C4CC4)n3)C2)cc1OC1CCCC1 (centres unmarked)
melting point: 105 to 106 °C
